target: cynomolgus PAI-1 (cynomolgus monkey (Macaca fascicularis), UniProt P05121 24-402 (human entry)); experiment: cell-based or functional assay
Sequence (P05121 other isoform, or with tags, fused parts or gaps limits assumed): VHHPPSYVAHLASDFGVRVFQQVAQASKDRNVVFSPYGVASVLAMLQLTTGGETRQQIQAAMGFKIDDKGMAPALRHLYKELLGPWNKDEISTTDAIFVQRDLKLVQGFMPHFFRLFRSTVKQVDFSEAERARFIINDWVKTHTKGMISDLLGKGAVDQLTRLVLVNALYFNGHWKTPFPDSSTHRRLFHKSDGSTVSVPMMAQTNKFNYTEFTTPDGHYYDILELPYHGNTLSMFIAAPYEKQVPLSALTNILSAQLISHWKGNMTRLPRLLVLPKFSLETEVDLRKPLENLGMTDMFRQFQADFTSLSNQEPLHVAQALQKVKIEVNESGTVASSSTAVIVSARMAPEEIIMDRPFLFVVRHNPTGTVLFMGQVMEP
Listed here: items and their measured active PAI-1 by uPA-PAI-1 complex ELISA, Cyno PAI-1, Y50%.
I only need the number, in %, no unit after it.

{"columns": ["BINDER", "MEASURED NUMBER"],
 "data": [
  ["A44-hv13 (antibody, V domains shown, humanized A44, HEK293; constant regions as for A44-hv1; also called LC2 x HC5b; variant 13) VH: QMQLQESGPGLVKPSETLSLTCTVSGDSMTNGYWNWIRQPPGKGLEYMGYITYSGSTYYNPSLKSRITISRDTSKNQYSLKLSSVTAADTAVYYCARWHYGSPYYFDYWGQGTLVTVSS VL: DIKMTQSPSSLSASVGDRVTITCKASQDINSYLSWLQQKPGKSPKTLIYRAQRSVEGVPSRFSGSGSGQDYSLTISSLQPEDLGIYYCLQYDEFPPTFGGGTKLEIK", 52.8]
]}

Exercise: Give the value of active PAI-1 by uPA-PAI-1 complex ELISA, Cyno PAI-1, Y50% reported for the following: A44-hv14 (antibody, V domains shown, humanized A44, HEK293; constant regions as for A44-hv1; also called LC4 x HC5b; variant 14) VH: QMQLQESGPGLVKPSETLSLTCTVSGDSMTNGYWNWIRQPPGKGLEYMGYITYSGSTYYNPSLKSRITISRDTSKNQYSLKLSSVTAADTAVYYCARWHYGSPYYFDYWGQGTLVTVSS VL: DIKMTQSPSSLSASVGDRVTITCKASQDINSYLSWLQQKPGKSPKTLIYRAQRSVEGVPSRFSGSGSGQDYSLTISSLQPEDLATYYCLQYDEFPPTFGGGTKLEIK
Solution: 52.5

Exercise: Give the value of active PAI-1 by uPA-PAI-1 complex ELISA, Cyno PAI-1, Y50% reported for the following: A44-hv12 (antibody, V domains shown, humanized A44, HEK293; constant regions as for A44-hv1; also called LC4 x HC3; variant 12) VH: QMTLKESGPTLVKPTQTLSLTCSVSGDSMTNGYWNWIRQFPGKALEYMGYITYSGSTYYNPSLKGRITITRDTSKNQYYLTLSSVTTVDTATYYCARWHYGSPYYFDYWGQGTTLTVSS VL: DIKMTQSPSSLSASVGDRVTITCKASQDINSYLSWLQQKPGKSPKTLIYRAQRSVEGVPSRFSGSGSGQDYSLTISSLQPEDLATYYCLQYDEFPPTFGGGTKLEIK
Solution: 53.5

Exercise: Give the value of active PAI-1 by uPA-PAI-1 complex ELISA, Cyno PAI-1, Y50% reported for the following: A44-hv11 (antibody, V domains shown, humanized A44, HEK293; compared with a human IgG1 isotype control; constant regions as for A44-hv1; also called A44V11; A44v11) VH: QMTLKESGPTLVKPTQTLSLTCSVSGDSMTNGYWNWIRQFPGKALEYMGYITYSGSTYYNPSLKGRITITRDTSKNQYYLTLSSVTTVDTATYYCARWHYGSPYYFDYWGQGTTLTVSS VL: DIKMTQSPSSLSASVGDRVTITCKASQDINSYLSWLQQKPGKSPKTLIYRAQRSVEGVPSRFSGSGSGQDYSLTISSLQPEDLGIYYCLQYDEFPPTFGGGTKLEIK
Solution: 50.8
